Cited source: the supplement of paper PMC10126150

Parameter switch fluorescence ratio: see the listing below.
Test system: ATP;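 further: ATP exposure 15 min at 22 °C before imaging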
Assay: switch fluorescence ratio, 500 uM ATP over buffer (Cy3 cluster intensity, sum of 5 cycles each) (fold (ratio)); higher = stronger signal-on switching upon ATP binding; sequences stand for … in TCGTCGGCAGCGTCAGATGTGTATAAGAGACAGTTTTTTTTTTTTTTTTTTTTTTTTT…TC
Details: aptamer strand: ATP DNA aptamer (quencher-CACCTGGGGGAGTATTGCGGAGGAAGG + anchor), 100 nM annealed; ATP concentration: 500 uM
outcome.measure: switch fluorescence ratio

construct_sequence=TCTTGCTCGT outcome_measure="switch fluorescence ratio" readout_value=1.02
construct_sequence=ACGAGGGAGC outcome_measure="switch fluorescence ratio" readout_value=1.05
construct_sequence=GAGATGGTAG outcome_measure="switch fluorescence ratio" readout_value=0.976
construct_sequence=GAATTTAGTC outcome_measure="switch fluorescence ratio" readout_value=1.06
construct_sequence=GCATGGGGCG outcome_measure="switch fluorescence ratio" readout_value=1.04
construct_sequence=ATGGTGTCTA outcome_measure="switch fluorescence ratio" readout_value=0.981
construct_sequence=TAATGGGGGG outcome_measure="switch fluorescence ratio" readout_value=0.989
construct_sequence=TTTTAGGATG outcome_measure="switch fluorescence ratio" readout_value=0.996
construct_sequence=AAGTCAGAGC outcome_measure="switch fluorescence ratio" readout_value=0.97
construct_sequence=TGAACGTTGG outcome_measure="switch fluorescence ratio" readout_value=0.997
construct_sequence=TTTGGCACAC outcome_measure="switch fluorescence ratio" readout_value=1.05
construct_sequence=ACAGCATTTT outcome_measure="switch fluorescence ratio" readout_value=1.03
construct_sequence=GTATGAGTCG outcome_measure="switch fluorescence ratio" readout_value=1.01
construct_sequence=TTGATGGTAC outcome_measure="switch fluorescence ratio" readout_value=1.08
construct_sequence=ACTCGGGGAG outcome_measure="switch fluorescence ratio" readout_value=1
construct_sequence=TCATTAATAT outcome_measure="switch fluorescence ratio" readout_value=1.16
construct_sequence=AAGATGAGGT outcome_measure="switch fluorescence ratio" readout_value=1.01
construct_sequence=TCCTACTGTT outcome_measure="switch fluorescence ratio" readout_value=0.996
construct_sequence=CGTGTATATC outcome_measure="switch fluorescence ratio" readout_value=1.07
construct_sequence=GGAACCGGGT outcome_measure="switch fluorescence ratio" readout_value=1.03
construct_sequence=ACGGGGGGTT outcome_measure="switch fluorescence ratio" readout_value=1.05
construct_sequence=GGGAGAATTG outcome_measure="switch fluorescence ratio" readout_value=1.01
construct_sequence=TAGGCCAAGT outcome_measure="switch fluorescence ratio" readout_value=0.989
construct_sequence=AGGAGTGCTG outcome_measure="switch fluorescence ratio" readout_value=0.995
construct_sequence=GGCGTAAATG outcome_measure="switch fluorescence ratio" readout_value=1.02
construct_sequence=ATTGAGGAGG outcome_measure="switch fluorescence ratio" readout_value=1.02
construct_sequence=ATGTTTGGTA outcome_measure="switch fluorescence ratio" readout_value=1
construct_sequence=TAGTACTGCT outcome_measure="switch fluorescence ratio" readout_value=1.02
